Please provide measured inhibition at 100 µM for the entries that follow.
- SYSTEM UNDER TEST: h KV1.5 (Homo sapiens, UniProt P22460)
- Construct: h KV1.5 (KCNA5, NM_002234); expressed in transfected cells; host or cells: Xenopus laevis oocytes injected with cRNA
- Sequence (P22460 whole entry): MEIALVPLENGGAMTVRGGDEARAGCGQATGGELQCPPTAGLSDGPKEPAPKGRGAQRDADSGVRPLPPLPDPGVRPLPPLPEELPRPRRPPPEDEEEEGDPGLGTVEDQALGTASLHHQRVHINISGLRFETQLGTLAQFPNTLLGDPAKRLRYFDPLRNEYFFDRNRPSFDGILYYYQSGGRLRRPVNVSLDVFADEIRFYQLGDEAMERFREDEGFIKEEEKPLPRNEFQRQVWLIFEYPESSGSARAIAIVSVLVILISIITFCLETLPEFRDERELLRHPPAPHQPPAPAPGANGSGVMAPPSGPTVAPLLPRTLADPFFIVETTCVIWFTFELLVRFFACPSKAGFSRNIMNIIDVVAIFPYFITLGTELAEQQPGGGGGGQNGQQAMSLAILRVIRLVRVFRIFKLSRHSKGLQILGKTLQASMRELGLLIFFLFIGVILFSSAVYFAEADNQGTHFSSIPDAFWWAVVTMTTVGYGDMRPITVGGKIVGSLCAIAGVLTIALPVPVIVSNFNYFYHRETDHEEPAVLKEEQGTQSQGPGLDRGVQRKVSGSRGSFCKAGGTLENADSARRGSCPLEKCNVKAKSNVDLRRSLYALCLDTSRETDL
- MEASUREMENT NOTES: TEVC recordings in X. laevis oocytes, KV1.5
- Assay type: cell-based
- CONDITIONS: 100 μM, +40 mV, oocytes, mean ± SD
Answers are plain numbers, in %.

| COMPOUND | SYSTEM UNDER TEST | ASSAY METRIC | VALUE UNITS | MEASUREMENT |
| --- | --- | --- | --- | --- |
| CCCCN(CCCC)CC(=O)Nc1ccc(OC)cc1 [Compound 6e] | h KV1.5 (Homo sapiens, UniProt P22460) | inhibition at 100 µM | % | 42.2 |
| CCCCN(CCCC)C(C)C(=O)Nc1cccc2ccccc12 (stereo not shown) [Compound 7c] | h KV1.5 (Homo sapiens, UniProt P22460) | inhibition at 100 µM | % | 35.7 |
| CCCCN(CCCC)C(C)C(=O)Nc1ccc(OC)cc1 (stereo not shown) [Compound 7a] | h KV1.5 (Homo sapiens, UniProt P22460) | inhibition at 100 µM | % | 38 |
| Cc1cc(C)cc(NC(=O)CN(C(C)C)C(C)C)c1 [Compound 6d] | h KV1.5 (Homo sapiens, UniProt P22460) | inhibition at 100 µM | % | 12.3 |
| CCCCN(CCCC)C(C)C(=O)Nc1ccccc1C (stereo not shown) [Compound 7b, 2-(dibutylamine)-N-(o-tolyl)propanamide] | h KV1.5 (Homo sapiens, UniProt P22460) | inhibition at 100 µM | % | 36.9 |

Attention now shifts to the item below.
[in] Read the entry CCCCN(CCCC)CC(=O)Nc1ccc(OC)cc1OC [Compound 6f] and write its reported inhibition at 100 µM.
[out] 55.8

Value source: paper PMC12131194
